Data credit: ChEMBL document CHEMBL3526001

experiment: in vitro; settings: human, Caco-2
value_type: Papp A→B at 2 h, 10 µM (×10⁻⁶ cm/s)

[[record]]
chemical_structure = "O=c1[nH]c2ccccc2n1CCCN1CCC(n2c(=O)[nH]c3cc(Cl)ccc32)CC1"
units_text = "×10⁻⁶ cm/s"
endpoint_result = 5.2

[[record]]
chemical_structure = "CC(C)c1nc(CN(C)C(=O)N[C@H](C(=O)N[C@@H](Cc2ccccc2)C[C@H](O)[C@H](Cc2ccccc2)NC(=O)OCc2cncs2)C(C)C)cs1"
units_text = "×10⁻⁶ cm/s"
endpoint_result = 2.1

[[record]]
chemical_structure = "O=C(O)c1cc(/N=N/c2ccc(O)c(C(=O)O)c2)ccc1O"
units_text = "×10⁻⁶ cm/s"
endpoint_result = 0.9

